Would you kindly list T1/2 monomeric for each of these binders?
Target: T1, monomeric hIL-4R (R&D Systems) (human, UniProt P24394 26-231)
T1 construct: Bought (R&D Systems); also called hIL-4R monomer
T1 sequence: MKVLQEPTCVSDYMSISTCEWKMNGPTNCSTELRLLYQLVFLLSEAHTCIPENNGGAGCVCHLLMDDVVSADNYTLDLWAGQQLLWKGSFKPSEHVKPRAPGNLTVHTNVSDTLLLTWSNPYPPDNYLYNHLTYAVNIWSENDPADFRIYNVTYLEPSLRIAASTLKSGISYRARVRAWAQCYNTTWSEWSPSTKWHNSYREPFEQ
Test: SPR (BIAcore 2000); antibody captured, monomeric hIL-4R injected
Procedure: Binding affinity (KD) of selected antibodies with respect to hIL-4R was determined using a real-time biosensor surface plasmon resonance assay (BIAcore™ 2000). Briefly, antibody was captured on a goat anti-mouse (GAM) IgG polyclonal antibody surface created through direct chemical coupling of the GAM IgG to a BIAcore™ chip to form a captured antibody surface. […] Binding of antigen to antibody and dissociation of the bound complex, were monitored in real time. […]
Output spec: scalar in h, unitless text.

Prompt: Annotate the binder VAK9C6-11 (antibody, V domains shown, Apparently tested with mouse constant region (anti-mouse IgG capture/detection)) VH: QVQLVESGGGVVQPGRSLRLSCAASGFTFSSYGMHWVRQAPGKGLEWVTVISYDGSIKYYVDSVKGRFTISRDNSKNTLFLQMNSLRVEDTAVYYCAKEGRKYGMDVWGQGTTVTVSS VL: DIQMTQSPSTLSASVGDRVTITCRASQIISSLLVWYQQKPGKAPKLLIYKASSLESGVPSRFSGSGSGTEFTLTISSLQPDDFATYYCQQYHSYMYTFGQGTKLEIK with its measured T1/2 monomeric.
Response: 0.467

Prompt: Annotate the binder VAK10G12-5 (antibody, V domains shown, Apparently tested with mouse constant region (anti-mouse IgG capture/detection)) VH: QVQLVESGGGVVQPGGSLRLSCAASGFTFSSYGMHWVRQAPGRGLEWVAVLSYDGSKEFYADSVKVRFTVSRDNSKNTLYLQMSSLRVEDTAIYFCAKEGRTGNWFDPWGQGTLVAVSS VL: DIQMTQSPSSLSASVGDRVTITCRASQAINNFLAWFQQKPGKTPKSLIFATSSLQSGVPSRFSGSESGTDFTLTISSLQPEDFATYYCQQYNSHPWTFGQGTKVEIK with its measured T1/2 monomeric.
Response: 6

Prompt: Annotate the binder VAK12B11-9 (antibody, V domains shown, Apparently tested with mouse constant region (anti-mouse IgG capture/detection)) VH: QVQLVESGGGVVQPGRSLRLSCAASGFTFSSYAMYWVRQAPGKGLEWVAVISYDGSNKYYTDSVKGRFTVSRDNSKNTLFLQMNSLRAEDTALYYCAKESSSYGLDVWGQGTTVTVSS VL: DIQMTQSPSTLSASVGDRVAITCRASQSISNWLAWYQQKPGKAPKLLISKASSLKSGVPSRFSGSGSGTEFTLTISSLQPDDFAAYYCQQYNSYSYTFGQGTKLEIK with its measured T1/2 monomeric.
Response: 2

Prompt: Annotate the binder VAB 7B9-3 (antibody, V domains shown, Apparently tested with mouse constant region (anti-mouse IgG capture/detection)) VH: QVQLVQSGAEVKKPGASVKVSCKDSAYTFNRYGISWVRQAPGQGLEWMGWISAYTGNTVYAQKLQGRVTMTTDNSTSTAYMELRSLRSDDTAVYYCARDKSIFGVVRGFDYWGQGTLVTVSS VL: EIVMTQSPVTLSLSPGERATLPCRASQSVSSSLAWYQQKAGQSPRLLIYGASTRATGIPARFSGSGSGTEFTLTISNLQSEDFAVYYCQQYNNWPLTFGGGTKVEIK with its measured T1/2 monomeric.
Response: 0.217
